# Assayed target: Cytochrome P450 2C19 (Homo sapiens) (UniProt P33261)
# Sequence (P33261 whole entry, looked up): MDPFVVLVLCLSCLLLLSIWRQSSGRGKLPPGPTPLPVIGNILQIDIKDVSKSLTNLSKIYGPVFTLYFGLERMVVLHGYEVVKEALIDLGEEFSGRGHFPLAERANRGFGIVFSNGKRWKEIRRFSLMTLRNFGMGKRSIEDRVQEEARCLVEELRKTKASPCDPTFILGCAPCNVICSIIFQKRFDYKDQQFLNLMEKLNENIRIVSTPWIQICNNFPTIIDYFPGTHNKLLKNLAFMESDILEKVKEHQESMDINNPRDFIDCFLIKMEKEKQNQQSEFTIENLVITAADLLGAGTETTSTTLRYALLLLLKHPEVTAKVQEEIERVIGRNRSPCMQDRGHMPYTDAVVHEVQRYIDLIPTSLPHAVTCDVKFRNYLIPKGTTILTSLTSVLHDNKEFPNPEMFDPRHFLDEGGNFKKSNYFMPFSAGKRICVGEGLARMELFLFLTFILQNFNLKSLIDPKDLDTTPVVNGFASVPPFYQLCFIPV
# Assay protocol: blockers of cytochrome P450 2C19 activity – biochemical, luminescence, ADME assay, primary screen (AID 778);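 also: plate controls were negative control wells for no effect and 2.5 mM tranylcypromine positive control for full effect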
# Condition context: CYP2C19 Supersomes, luciferin-H EGE luminescence, 30 min; at 5 µM; active compounds read high
In all, about 96,000 compounds went through this assay and about 20,000 (21%) were called active. Only a sample is shown.
Item-by-item account of inhibition
Respond with the bare value in %.

## Input Please supply the value of reported inhibition for the item O=C(COC(=O)c1ccccc1SCC(=O)NC1CCCCC1)NC1CCCCC1
## Output 12.2

## Input Please supply the value of reported inhibition for the item Cc1nn(-c2ccccc2)c(C)c1C(=O)OCC(=O)NC(=O)NC1CCCCC1
## Output 28.3

## Input Please supply the value of reported inhibition for the item CCOc1ccc(S(=O)(=O)N2CCCCCC2)c2ccccc12
## Output 32.3

## Input Please supply the value of reported inhibition for the item COc1ccccc1NC(=O)C1=C(C)Nc2nnnn2C1c1cccc(Br)c1 (stereo not drawn)
## Output 37.1

## Input Please supply the value of reported inhibition for the item CCCn1c(C)cc(C(=O)COC(=O)c2c(C)nn(-c3ccccc3)c2C)c1C
## Output 88.6

## Input Please supply the value of reported inhibition for the item COc1ccc2c(c1OC)C(=O)OC2Nc1nc(-c2ccccc2)cs1 (stereo not drawn)
## Output 12
